biological target: human BAFF (human, UniProt Q9Y275 82-285, limits assumed); assay: NNS library, phage display;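 also: ligand versus display occurrence-to-degeneracy ratio and higher means enriched by binding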
Sequence (Q9Y275 82-285 limits assumed): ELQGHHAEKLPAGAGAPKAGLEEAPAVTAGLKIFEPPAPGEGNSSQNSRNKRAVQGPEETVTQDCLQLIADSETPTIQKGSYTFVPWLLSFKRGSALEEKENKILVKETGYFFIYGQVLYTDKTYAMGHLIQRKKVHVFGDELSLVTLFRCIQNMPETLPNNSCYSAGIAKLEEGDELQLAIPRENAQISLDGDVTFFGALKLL
Documented F' BAFF across a set of binders
Output: the number by itself.

SLSCRKEQGKYYDHLLRDCISCASICGQHPKQCAYFCENKLR (receptor, phage library variant, format as m9) [TACI_d2 F78Y] | 41

Query: Which F' BAFF value belongs to SLSCRKEQGKFWDHLLRDCISCASICGQHPKQCAYFCENKLR (receptor, phage library variant, format as m9) [TACI_d2 Y79W] ?
Response: 4
